target: methionyl-tRNA synthetase (Trypanosoma brucei brucei); test: T. brucei MetRS inhibitors, late-stage follow-up, biochemical, luminescence, dose response, round 3 (AID 1053132); conditions: recombinant T. brucei MetRS, luminescence (ATP consumption)
Activity calls are given as the source filed them. The rule behind the calls is not given here.
Here the recorded IC50 is given for each entry.

[
  {
    "COMPOUND": "CCN(CC)C(=O)C(=O)c1cn(CCNc2cccc(C(F)(F)F)c2)c2ccccc12",
    "IC50": "> 119000 nM (inactive)"
  },
  {
    "COMPOUND": "CCN(CC)C(=O)C(=O)c1cn(CC(=O)Nc2cc(Oc3ccc(F)cc3)cc(C(F)(F)F)c2)c2ccccc12",
    "IC50": "188 nM"
  }
]
